# Species on record: Rattus norvegicus
# experiment notes: Open TG-GATES - Regimen: Daily Repeat
# Assay type: toxicity, organism-based, Sprague-Dawley
# Parameters: regimen Daily Repeat, gender Male, age 6 weeks
# condition description: in vivo, po, 0 mg/kg, […], tissue Plasma, route gavage, dose level Control, time 7 day
Recorded DBIL values for a group of molecules are listed next.
Please respond with the number in mg/dL and leave the unit unwritten.

# example entries with known answers
**Query** Would you mind telling me what DBIL value was observed for CN(C)CCN(Cc1cccs1)c1ccccn1 ?
**Result** 0

**Query** CN1C(=O)CN=C(c2ccccc2)c2cc(Cl)ccc21 ?
**Result** 0.02

**Query** CC1=C(/C=C/C(C)=C/C=C/C(C)=C/CO)C(C)(C)CCC1 ?
**Result** 0

**Query** CC(C)OC(=O)C(C)(C)Oc1ccc(C(=O)c2ccc(Cl)cc2)cc1 [FENOFIBRATE] ?
**Result** 0.012

---
**Query** Would you mind telling me what DBIL value was observed for NNC(=O)c1ccncc1 ?
**Result** 0.074

* * *

# Organism: Rattus norvegicus
# experiment notes: Open TG-GATES - Regimen: Single
# Type: toxicity, organism-based, Sprague-Dawley
# Design: regimen Single, gender Male, age 6 weeks
# condition description: in vivo, po, 0 mg/kg, 9 h, tissue Blood, route gavage, dose level Control
Recorded Hb values for a group of molecules are listed next.
Units required after the number.

**Query** Would you mind telling me what Hb value was observed for O=C(CCCN1CCC(O)(c2ccc(Cl)cc2)CC1)c1ccc(F)cc1 ?
**Result** 13.7 g/dL

**Query** CCCNC(=O)NS(=O)(=O)c1ccc(Cl)cc1 [CHLORPROPAMIDE] ?
**Result** 12.9 g/dL

**Query** CN(C)CCCN1c2ccccc2CCc2ccccc21 ?
**Result** 12.9 g/dL

Turning now to a further record.
**Query** Would you mind telling me what Hb value was observed for COC1=CC(=O)C[C@@H](C)[C@]12Oc1c(Cl)c(OC)cc(OC)c1C2=O ?
**Result** 13.5 g/dL

* * *

# Organism: Rattus norvegicus
# experiment notes: Open TG-GATES - Regimen: Single
# Type: toxicity, organism-based, Sprague-Dawley
# Parameters: regimen Single, gender Male, age 6 weeks
# condition description: in vivo, po, 1000 mg/kg, 9 h, tissue Plasma, route gavage, dose level High
Recorded gamma-GTP values for a group of compounds are listed next.
Units required after the number.

**Query** Would you mind telling me what gamma-GTP value was observed for COc1ccc2[nH]c([S+]([O-])Cc3ncc(C)c(OC)c3C)nc2c1 (stereo not given) ?
**Result** 0.6 IU/L

**Query** CCOC(=O)CCC(=O)O[C@H]1[C@H](O[C@@H]2[C@@H](C)[C@H](O[C@H]3C[C@@](C)(OC)[C@@H](O)[C@H](C)O3)[C@@H](C)C(=O)O[C@H](CC)[C@@](C)(O)[C@H](O)[C@@H](C)C(=O)[C@H](C)C[C@@]2(C)O)O[C@H](C)C[C@@H]1N(C)C [ERYTHROMYCIN ETHYLSUCCINATE] ?
**Result** 1 IU/L

**Query** CC(C)OC(=O)C(C)(C)Oc1ccc(C(=O)c2ccc(Cl)cc2)cc1 [FENOFIBRATE] ?
**Result** 1 IU/L

**Query** NC(N)=Nc1nc(CSCCC(N)=NS(N)(=O)=O)cs1 ?
**Result** 0.8 IU/L

**Query** COC1=CC(=O)C[C@@H](C)[C@]12Oc1c(Cl)c(OC)cc(OC)c1C2=O ?
**Result** 1.2 IU/L

* * *

Recorded LIVER values for a group of compounds are listed next.
# Species on record: Rattus norvegicus
# experiment notes: Open TG-GATES - Regimen: Single
# Format: toxicity, organism-based, Sprague-Dawley
# Design: regimen Single, gender Male, age 6 weeks
# condition description: in vivo, po, 100 mg/kg, 9 h, tissue Liver, route gavage, dose level High
Please respond with the number in g and leave the unit unwritten.

# example entries with known answers
**Query** Would you mind telling me what LIVER value was observed for CC1=C(/C=C/C(C)=C/C=C/C(C)=C/CO)C(C)(C)CCC1 ?
**Result** 8.8

**Query** CN(C)CCCN1c2ccccc2CCc2ccc(Cl)cc21 ?
**Result** 9

**Query** CN(C)CCCN1c2ccccc2CCc2ccccc21 ?
**Result** 8.3

Turning now to a further record.
**Query** Would you mind telling me what LIVER value was observed for CN(C)CCN(Cc1cccs1)c1ccccn1 ?
**Result** 7.8

* * *

Recorded ALT values for a group of molecules are listed next.
# Organism: Rattus norvegicus
# experiment notes: Open TG-GATES - Regimen: Single
# Assay type: toxicity, organism-based, Sprague-Dawley
# Design: regimen Single, gender Male, age 6 weeks
# condition description: in vivo, po, 100 mg/kg, 24 h, tissue Plasma, route gavage, dose level High
Please respond with the number in IU/L and leave the unit unwritten.

# example entries with known answers
**Query** Would you mind telling me what ALT value was observed for CC1=C(/C=C/C(C)=C/C=C/C(C)=C/CO)C(C)(C)CCC1 ?
**Result** 47.2

**Query** CN(C)CCCN1c2ccccc2CCc2ccc(Cl)cc21 ?
**Result** 43

**Query** CN(C)CCCN1c2ccccc2CCc2ccccc21 ?
**Result** 35.4

Turning now to a further record.
**Query** Would you mind telling me what ALT value was observed for CN(C)CCN(Cc1cccs1)c1ccccn1 ?
**Result** 68.4

* * *

# Species on record: Rattus norvegicus
# experiment notes: Open TG-GATES - Regimen: Daily Repeat
# Type: toxicity, organism-based, Sprague-Dawley
# Design: regimen Daily Repeat, gender Male, age 6 weeks
# condition description: in vivo, po, 100 mg/kg, […], tissue Plasma, route gavage, dose level Low, time 28 day
recorded endpoint: Cl (meq/L)
Please respond with the number in meq/L and leave the unit unwritten.

**Query** Would you mind telling me what Cl value was observed for COC1=CC(=O)C[C@@H](C)[C@]12Oc1c(Cl)c(OC)cc(OC)c1C2=O ?
**Result** 104.2

**Query** CCOc1ccc(NC(=O)CC(C)O)cc1 (stereo not given) ?
**Result** 104.8

**Query** NC(N)=Nc1nc(CSCCC(N)=NS(N)(=O)=O)cs1 ?
**Result** 103.4

**Query** COc1ccc2[nH]c([S+]([O-])Cc3ncc(C)c(OC)c3C)nc2c1 (stereo not given) ?
**Result** 101.4

Turning now to a further record.
**Query** Would you mind telling me what Cl value was observed for CCOC(=O)CCC(=O)O[C@H]1[C@H](O[C@@H]2[C@@H](C)[C@H](O[C@H]3C[C@@](C)(OC)[C@@H](O)[C@H](C)O3)[C@@H](C)C(=O)O[C@H](CC)[C@@](C)(O)[C@H](O)[C@@H](C)C(=O)[C@H](C)C[C@@]2(C)O)O[C@H](C)C[C@@H]1N(C)C [ERYTHROMYCIN ETHYLSUCCINATE] ?
**Result** 106.4

* * *

# Organism: Rattus norvegicus
# experiment notes: Open TG-GATES - Regimen: Single
# Assay type: toxicity, organism-based, Sprague-Dawley
# Design: regimen Single, gender Male, age 6 weeks
# condition description: in vivo, po, 10 mg/kg, 6 h, route gavage, dose level Low
Recorded TERMINAL_BW values for a group of compounds are listed next.
Please respond with the number in g and leave the unit unwritten.

**Query** Would you mind telling me what TERMINAL_BW value was observed for CN(C)CCCN1c2ccccc2CCc2ccccc21 ?
**Result** 199.7

**Query** CC1=C(/C=C/C(C)=C/C=C/C(C)=C/CO)C(C)(C)CCC1 ?
**Result** 200

**Query** CN(C)CCN(Cc1cccs1)c1ccccn1 ?
**Result** 188.4

Turning now to a further record.
**Query** Would you mind telling me what TERMINAL_BW value was observed for CN(C)CCCN1c2ccccc2CCc2ccc(Cl)cc21 ?
**Result** 215.1

* * *

# Species: Rattus norvegicus
# experiment notes: Open TG-GATES - Regimen: Single
# Type: toxicity, organism-based, Sprague-Dawley
# Design: regimen Single, gender Male, age 6 weeks
# condition description: in vivo, po, 100 mg/kg, 6 h, tissue Blood, route gavage, dose level Low
Recorded Ret values for a group of compounds are listed next.
Please respond with the number in % and leave the unit unwritten.

**Query** Would you mind telling me what Ret value was observed for COC1=CC(=O)C[C@@H](C)[C@]12Oc1c(Cl)c(OC)cc(OC)c1C2=O [GRISEOFULVIN] ?
**Result** 8

**Query** NC(N)=Nc1nc(CSCCC(N)=NS(N)(=O)=O)cs1 [FAMOTIDINE] ?
**Result** 6.8

**Query** COc1ccc2[nH]c([S+]([O-])Cc3ncc(C)c(OC)c3C)nc2c1 (centres undefined) [OMEPRAZOLE] ?
**Result** 6.5

Turning now to a further record.
**Query** Would you mind telling me what Ret value was observed for CCOC(=O)CCC(=O)O[C@H]1[C@H](O[C@@H]2[C@@H](C)[C@H](O[C@H]3C[C@@](C)(OC)[C@@H](O)[C@H](C)O3)[C@@H](C)C(=O)O[C@H](CC)[C@@](C)(O)[C@H](O)[C@@H](C)C(=O)[C@H](C)C[C@@]2(C)O)O[C@H](C)C[C@@H]1N(C)C [ERYTHROMYCIN ETHYLSUCCINATE] ?
**Result** 7.8
